Numbers sourced from patent US20120095193A1.

Target: T1, human ADAMTS5 (human, UniProt Q9UNA0 262-622, limits assumed)
T1 construct: Octet and ELISA used 'recombinant human ADAMTS5'; also called recombinant human ADAMTS5; ADAMTS5 (R&D Systems 2198-AD)
T1 sequence: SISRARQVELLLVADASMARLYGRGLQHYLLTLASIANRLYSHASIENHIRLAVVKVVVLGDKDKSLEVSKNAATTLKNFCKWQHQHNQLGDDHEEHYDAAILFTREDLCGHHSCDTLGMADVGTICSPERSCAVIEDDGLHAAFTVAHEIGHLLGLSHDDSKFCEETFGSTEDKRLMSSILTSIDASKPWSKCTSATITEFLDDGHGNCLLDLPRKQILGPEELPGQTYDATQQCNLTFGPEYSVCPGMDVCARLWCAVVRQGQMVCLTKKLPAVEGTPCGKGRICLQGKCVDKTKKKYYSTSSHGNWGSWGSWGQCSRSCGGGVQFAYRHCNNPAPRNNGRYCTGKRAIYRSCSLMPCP
Test: Biacore, mAb from culture supernatant captured on anti-human IgG, ADAMTS5 (R&D 2198-AD) at 64 nM, 1:1 fit
I'd be grateful if you could share measured koff for these entries.
Reply numerically in s⁻¹, unit not repeated.

I would be grateful if you could share the reported koff for BPC1640 (antibody, human IgG1, kappa, V domains shown, Humanized, human gamma 1 / kappa; also called 7B4 H6L0) VH: EVQLVESGGGLVQPGGSLRLSCAASGFTSSDAWMDWVRQAPGKGLEWVAEIRNKANNHARHYAESVKGRFTISRDDAKNSVYLQMNSLRAEDTAVYYCTRTYYYGSSYGYCDVWGQGTLVTVSS VL: DIQMTQSPSSLSASVGDRVTITCRTSENIYSYLAWYQQKPGKAPKLLIYNAKTLAEGVPSRFSGSGSGTDFTLTISSLQPEDFATYYCQHHYGTPWTFGQGTKLEIKR . 0.000849

I would be grateful if you could share the reported koff for BPC1638 (antibody, human IgG1, kappa, V domains shown, Humanized, human gamma 1 / kappa; also called 7B4 H4L0) VH: EVQLVESGGGLVQPGGSLRLSCAASGFTSSDAWMDWVRQAPGKGLEWVAEIRNKANNHARHYAESVKGRFTISRDDAKNSLYLQMNSLRAEDTAVYYCTRTYYYGSSYGYCDVWGQGTLVTVSS VL: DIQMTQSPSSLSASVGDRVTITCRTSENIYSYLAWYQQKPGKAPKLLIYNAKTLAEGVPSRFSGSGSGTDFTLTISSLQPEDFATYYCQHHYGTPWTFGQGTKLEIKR . 0.000831

I would be grateful if you could share the reported koff for BPC1649 (antibody, human IgG1, kappa, V domains shown, Humanized, human gamma 1 / kappa; also called 7B4 H1L2) VH: EVQLVESGGGLVQPGGSLRLSCAASGFTFSDAWMDWVRQAPGKGLEWVAEIRNKANNHARHYAESVKGRFTISRDNAKNSLYLQMNSLRAEDTAVYYCTRTYYYGSSYGYCDVWGQGTLVTVSS VL: DIQMTQSPSSLSASVGDRVTITCRTSENIYSYLAWYQQKPGKAPQLLVYNAKTLAEGVPSRFSGSGSGTDFTLTISSLQPEDFATYYCQHHYGTPWTFGQGTKLEIKR . 0.0013

I would be grateful if you could share the reported koff for BPC1656 (antibody, human IgG1, kappa, V domains shown, Humanized, human gamma 1 / kappa; also called 12F4 H1L0) VH: EVQLLESGGGLVQPGGSLRLSCAASGFTFSDAWMDWVRQAPGKGLEWVSEIRHKANDHAIFYDESVKGRFTISRDNSKNTLYLQMNSLRAEDTAVYYCTSPFAYWGQGTLVTVSS VL: DIQMTQSPSSLSASVGDRVTITCKASQSVGTTIVWYQQKPGKAPKLLIYSASNRHTGVPSRFSGSGSGTDFTLTISSLQPEDFATYYCQQYTSYPFTFGQGTKLEIKR . 0.000395

I would be grateful if you could share the reported koff for BPC1643 (antibody, human IgG1, kappa, V domains shown, Humanized, human gamma 1 / kappa; also called 7B4 H2L1) VH: EVQLVESGGGLVQPGGSLRLSCAASGFTSSDAWMDWVRQAPGKGLEWVAEIRNKANNHARHYAESVKGRFTISRDNAKNSLYLQMNSLRAEDTAVYYCARTYYYGSSYGYCDVWGQGTLVTVSS VL: DIQMTQSPSSLSASVGDRVTITCRTSENIYSYLAWYQQKPGKAPKLLVYNAKTLAEGVPSRFSGSGSGTDFTLTISSLQPEDFATYYCQHHYGTPWTFGQGTKLEIKR . 0.00143

I would be grateful if you could share the reported koff for BPC1648 (antibody, human IgG1, kappa, V domains shown, Humanized, human gamma 1 / kappa; also called 7B4 H0L2) VH: EVQLVESGGGLVQPGGSLRLSCAASGFTFSDAWMDWVRQAPGKGLEWVAEIRNKANNHARHYAESVKGRFTISRDNAKNSLYLQMNSLRAEDTAVYYCARTYYYGSSYGYCDVWGQGTLVTVSS VL: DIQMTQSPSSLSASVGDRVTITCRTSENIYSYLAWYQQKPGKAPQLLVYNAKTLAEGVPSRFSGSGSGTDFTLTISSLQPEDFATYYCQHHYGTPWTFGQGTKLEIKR . 0.000951
